Molecular target: human GluN1/GluN2B NMDA receptors (Homo sapiens, UniProt Q05586+Q13224)
Sequence (Q13224 27-1484, other chains not shown): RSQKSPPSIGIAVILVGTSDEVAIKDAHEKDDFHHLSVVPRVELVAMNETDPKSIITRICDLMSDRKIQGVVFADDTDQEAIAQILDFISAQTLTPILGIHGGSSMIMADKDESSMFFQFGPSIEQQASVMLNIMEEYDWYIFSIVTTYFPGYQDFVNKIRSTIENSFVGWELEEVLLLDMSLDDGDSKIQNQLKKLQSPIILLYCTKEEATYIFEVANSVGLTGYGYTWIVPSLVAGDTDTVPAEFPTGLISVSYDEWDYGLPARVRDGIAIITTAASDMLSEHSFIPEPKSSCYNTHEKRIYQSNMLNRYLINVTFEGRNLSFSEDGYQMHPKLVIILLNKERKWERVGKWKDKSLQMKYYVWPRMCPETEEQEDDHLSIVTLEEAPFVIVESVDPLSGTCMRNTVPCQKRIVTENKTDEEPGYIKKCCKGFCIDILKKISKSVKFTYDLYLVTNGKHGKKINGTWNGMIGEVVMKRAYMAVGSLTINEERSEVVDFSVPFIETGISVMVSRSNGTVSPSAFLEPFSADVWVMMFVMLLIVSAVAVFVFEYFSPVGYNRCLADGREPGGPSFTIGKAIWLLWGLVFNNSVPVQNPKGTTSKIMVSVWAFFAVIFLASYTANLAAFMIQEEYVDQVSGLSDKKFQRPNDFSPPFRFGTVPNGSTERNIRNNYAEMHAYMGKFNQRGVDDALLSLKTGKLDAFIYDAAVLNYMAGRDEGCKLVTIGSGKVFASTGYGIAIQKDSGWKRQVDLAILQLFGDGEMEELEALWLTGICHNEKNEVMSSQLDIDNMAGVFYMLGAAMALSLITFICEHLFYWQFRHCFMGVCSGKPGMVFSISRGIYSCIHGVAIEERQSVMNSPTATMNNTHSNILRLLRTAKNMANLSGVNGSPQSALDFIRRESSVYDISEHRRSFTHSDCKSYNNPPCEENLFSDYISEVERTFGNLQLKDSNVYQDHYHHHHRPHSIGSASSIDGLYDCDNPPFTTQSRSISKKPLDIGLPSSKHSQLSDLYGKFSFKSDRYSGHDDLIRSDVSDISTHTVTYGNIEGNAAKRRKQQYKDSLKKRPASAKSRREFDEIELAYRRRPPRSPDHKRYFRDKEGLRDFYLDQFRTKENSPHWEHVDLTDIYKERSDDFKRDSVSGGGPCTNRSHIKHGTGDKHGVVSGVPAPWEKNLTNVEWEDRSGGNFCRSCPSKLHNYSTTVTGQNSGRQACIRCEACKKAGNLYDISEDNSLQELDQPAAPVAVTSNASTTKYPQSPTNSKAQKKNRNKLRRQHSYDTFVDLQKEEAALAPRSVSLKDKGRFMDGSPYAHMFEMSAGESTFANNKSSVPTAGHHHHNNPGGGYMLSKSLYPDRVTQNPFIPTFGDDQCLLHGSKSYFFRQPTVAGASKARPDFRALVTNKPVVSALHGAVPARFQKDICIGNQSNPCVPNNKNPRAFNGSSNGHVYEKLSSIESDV
Assay: Cell-based calcium flux (FLIPR) assay on cloned human NR1/NR2B ion channels expressed in mammalian cells
Conditions: standard assay; glutamate at ~EC80; FLIPR calcium flux
Each entry below carries its recorded IC50.
Give the quantity in µM, number only.

Illustrative cases are given below, each with its answer.
>>> print(df.to_string())
                                   compound                            assayed_target  measurement_unit  result_number
0  Fc1ccc(-n2cc(COc3ncc(F)c(NC4CC4)n3)nn2)cc1OC(F)F [Example 519]  human GluN1/GluN2B NMDA receptors (Homo sapiens, UniProt Q05586+Q13224)                µM          0.204
1  Cc1c(F)ccc(-n2cc(COc3ncc(C(C)(C)O)cn3)nn2)c1F [Example 644]  human GluN1/GluN2B NMDA receptors (Homo sapiens, UniProt Q05586+Q13224)                µM          0.967
2  CC(F)(F)c1cc(-n2cc(COc3ncc(S(C)(=O)=O)cn3)nn2)ccc1F [Example 584]  human GluN1/GluN2B NMDA receptors (Homo sapiens, UniProt Q05586+Q13224)                µM          0.199
3  Cc1cnc(OCc2cn(-c3cccc(Cl)c3F)nn2)nc1 [Example 610]  human GluN1/GluN2B NMDA receptors (Homo sapiens, UniProt Q05586+Q13224)                µM           1.03

Turning now to a further record.
Data request: I'd like to know its IC50. The compound in question is OCc1ccnc(OCc2cn(-c3ccc(Cl)c(C(F)F)c3)nn2)n1 [Example 625]
Data returned: 0.017

###

Target: human GluN1/GluN2B NMDA receptors (Homo sapiens, UniProt Q05586+Q13224)
Experiment: Cell-based calcium flux (FLIPR) assay on cloned human NR1/NR2B ion channels expressed in mammalian cells
Details: standard assay; human GluN1/GluN2B, calcium flux (FLIPR), glutamate ~EC80
Experimental: Effects of Test Articles on Cloned Human NR1/NR2B Ion Channels Expressed in Mammalian Cells NMDA receptors are ion channels that are highly permeable to Ca^2+ ions, rendering it possible to monitor NMDA receptor function using cell-based calcium flux assay. […] The time course of the changes in intracellular calcium is measured using a fluorescent dye and a FLIPR (Fluorometric Imaging Plate Reader) device. […]
Endpoint Label: IC50 (µM)
Give the quantity in µM, number only.

In [3]: df
Out[3]:
                              line_notation  endpoint_label  result_number
0  CCc1cnc(NCc2cn(-c3ccc(F)c(C(F)F)c3)nn2)nc1            IC50          0.026
1  CCc1cnc(OCc2cn(-c3ccc(OC(F)(F)F)cc3)nn2)nc1            IC50          0.794
2  COc1cnc(OCc2cn(-c3ccc(Cl)c(OC)c3)nn2)nc1            IC50          0.012
3  Fc1ccc(-n2cc(COc3ncc(C(F)(F)F)cn3)nn2)cc1C(F)(F)F            IC50          0.035
4   CCc1cnc(OCc2cn(-c3cccc(C(F)F)c3)nn2)nc1            IC50          0.004
5  C[C@@H](Oc1ncccn1)c1cn(-c2ccc(Cl)c(OC(F)F)c2)nn1            IC50          0.011

Data request: Identify the measured IC50 of FC(F)Oc1cc(-n2cc(COc3ncccn3)nn2)ccc1Cl for human GluN1/GluN2B NMDA receptors (Homo sapiens, UniProt Q05586+Q13224).
Data returned: 0.01

Data request: What would you report for Fc1cnc(OCc2cn(-c3ccc(OC(F)F)cc3)nn2)nc1 ?
Data returned: 0.752

Data request: What would you report for Cc1cnc(NCc2cn(-c3ccc(F)c(C(F)F)c3)nn2)nc1 ?
Data returned: 0.049

Data request: What would you report for Cc1ccnc(OCc2cn(-c3cccc(C(C)(F)F)c3)nn2)n1 ?
Data returned: 0.012

Data request: What would you report for Fc1ccc(-n2cc(CNc3ncc(Cl)cn3)nn2)cc1C(F)F ?
Data returned: 0.074

Data request: What would you report for Cc1nc(OCc2cn(-c3cccc(C(F)F)c3)nn2)ncc1Cl ?
Data returned: 0.003

###

Target: human GluN1/GluN2B NMDA receptors (Homo sapiens, UniProt Q05586+Q13224)
Experiment: Cell-based calcium flux (FLIPR) assay on cloned human NR1/NR2B ion channels expressed in mammalian cells
Settings: standard assay; glutamate at ~EC80; FLIPR calcium flux
IC50 strictly under 0.3 µM means 1; at 0.3 µM or over means 0.

Some solved cases for reference:
>>> print(df.to_string())
                              line_notation  label_class
0     Fc1c(Cl)cccc1-n1cc(COc2ncc(Cl)cn2)nn1            0
1  CCc1ccnc(OCc2cn(-c3ccc(F)c(OC(F)F)c3)nn2)n1            1
2  Cc1cnc(OCc2cn(-c3ccc(Cl)c(C(F)F)c3)nn2)nc1N(C)C            1

Moving on to the next compound.
Data request: For Cc1c(COc2ncc(C3CC3)cn2)nnn1-c1ccc(F)c(C(C)(F)F)c1 , is the recorded IC50 below the cut-off of 0.3 µM?
Data returned: 1

###

Biological target: human GluN1/GluN2B NMDA receptors (Homo sapiens, UniProt Q05586+Q13224)
Assay: Cell-based calcium flux (FLIPR) assay on cloned human NR1/NR2B ion channels expressed in mammalian cells
Details: standard assay; human GluN1/GluN2B, calcium flux (FLIPR), glutamate ~EC80
IC50 strictly under 0.03 µM means Met; at 0.03 µM or over means Not met.

Some solved cases for reference:
>>> df
                                   compound                            assayed_target  label_class
0  CC(F)(F)c1cccc(-n2cc(COc3ncc(OC(F)F)cn3)nn2)c1 [Example 308]  human GluN1/GluN2B NMDA receptors (Homo sapiens, UniProt Q05586+Q13224)          Met
1  FC(F)c1cccc(-n2cc(COc3nccc(C4CC4)n3)nn2)c1 [Example 283]  human GluN1/GluN2B NMDA receptors (Homo sapiens, UniProt Q05586+Q13224)      Not met
2  Cc1cnc(OCc2cn(-c3ccc4c(c3)OC(F)(F)O4)nn2)nc1 [Example 354]  human GluN1/GluN2B NMDA receptors (Homo sapiens, UniProt Q05586+Q13224)      Not met
3  FC(F)c1cccc(-n2cc(CNc3ncc(Cl)cn3)nn2)c1 [Example 153]  human GluN1/GluN2B NMDA receptors (Homo sapiens, UniProt Q05586+Q13224)      Not met
4  Fc1ccc(-n2cc(COc3nccc(N4CCCC4)n3)nn2)cc1OC(F)F [Example 168]  human GluN1/GluN2B NMDA receptors (Homo sapiens, UniProt Q05586+Q13224)          Met
5  Cc1cnc(OCc2cn(-c3cc(C)cc(C)c3)nn2)nc1 [Example 364]  human GluN1/GluN2B NMDA receptors (Homo sapiens, UniProt Q05586+Q13224)          Met
6  Cc1cnc(NCc2cn(-c3ccc(F)c(C)c3)nn2)nc1 [Example 198]  human GluN1/GluN2B NMDA receptors (Homo sapiens, UniProt Q05586+Q13224)      Not met

Moving on to the next compound.
Data request: For Cc1cnc(OCc2cn(-c3ccc(F)c(C(F)(F)F)c3)nn2)nc1 [Example 81] , is the recorded IC50 below the cut-off of 0.03 µM?
Data returned: Met

###

Target: human GluN1/GluN2B NMDA receptors (Homo sapiens, UniProt Q05586+Q13224)
Assay: Cell-based calcium flux (FLIPR) assay on cloned human NR1/NR2B ion channels expressed in mammalian cells
Details: standard assay; glutamate at ~EC80; FLIPR calcium flux
IC50 strictly under 0.1 µM means yes (1); at 0.1 µM or over means no (0).

>>> print(df.to_string())
                                   compound  label_class
0  Nc1cnc(OCc2cn(-c3ccc(F)c(OC(F)F)c3)nn2)nc1 [Example 502]       no (0)
1  Cc1cnc(OCc2cn(-c3cccc(F)c3C)nn2)nc1 [Example 464]       no (0)
2  Cc1cnc(OCc2cn(-c3ccc(F)c(C(C)(F)F)c3)nn2)nc1N(C)C [Example 579]      yes (1)
3  Fc1ccc(-n2cc(COc3ccc(Cl)cn3)nn2)cc1C(F)(F)F [Example 428]       no (0)
4  Cc1cnc(OCc2cn(-c3ccc(Cl)c(C(C)(F)F)c3)nn2)nc1 [Example 530]      yes (1)

Data request: For CC1(F)CN(c2cnc(OCc3cn(-c4ccc(F)c(C(F)F)c4)nn3)nc2)C1 [Example 420] , is the recorded IC50 below the cut-off of 0.1 µM?
Data returned: no (0)

Data request: What would you report for Cc1nc(OCc2cn(-c3ccc(F)c(C(F)(F)F)c3)nn2)ncc1N1CCC1 [Example 457] ?
Data returned: no (0)

Data request: What would you report for Fc1ccc(-n2cc(COc3ccc(C(F)(F)F)cn3)nn2)cc1C(F)(F)F [Example 432] ?
Data returned: no (0)

Data request: What would you report for Cc1nc(OCc2cn(-c3ccc(Cl)c(C(C)(F)F)c3)nn2)ncc1Cl [Example 543] ?
Data returned: yes (1)

meta.source: patent US10233173B2
